System: Chinese hamster ovary cell line (CHO-K1)
method-summary: Genotoxicity in the micronucleus test in CHO-K1 cells
Assay type: cell-based
measurement-context: 200 µM
Catalogue of molecules with associated MN (number of micronuclei in 1000 binucleate cells)
assay-readout: MN (number of micronuclei in 1000 binucleate cells)

[
  {
    "molecule": "CC(CO)NC(=O)/C=C/c1ccc(Cl)cc1 (stereo not drawn)",
    "test-system": "Chinese hamster ovary cell line (CHO-K1)",
    "value": 8.5
  },
  {
    "molecule": "CCC(O)CNC(=O)/C=C/c1ccc(Cl)cc1 (stereo not drawn)",
    "test-system": "Chinese hamster ovary cell line (CHO-K1)",
    "value": 6.5
  },
  {
    "molecule": "O=C(/C=C/c1ccccc1)NCCCCCO",
    "test-system": "Chinese hamster ovary cell line (CHO-K1)",
    "value": 6.8
  },
  {
    "molecule": "O=C(/C=C/c1ccccc1)NCCCCCCO",
    "test-system": "Chinese hamster ovary cell line (CHO-K1)",
    "value": 12.5
  },
  {
    "molecule": "O=C(/C=C/c1ccc(Cl)cc1)NCCCCCO",
    "test-system": "Chinese hamster ovary cell line (CHO-K1)",
    "value": 10.0
  },
  {
    "molecule": "Cc1ccc(/C=C/C(=O)NCCCCCO)cc1",
    "test-system": "Chinese hamster ovary cell line (CHO-K1)",
    "value": 11.5
  }
]

----------
Tested on: S. typhimurium TA1535
method-summary: Ames microplate test, TA1535
measurement-context: 2.0 mM, without S9
One threshold, 0.9, splits the recorded Increase in the number of yellow wells compared to the reference level values: lower ones are class 1, equal or higher ones are class 0.

[
  {
    "compound": "O=C(/C=C/c1ccccc1)NCCCCCO [Compound A-133]",
    "class-label": "class 0"
  },
  {
    "compound": "O=C(/C=C/c1ccc(Cl)cc1)NCCCCCO [Compound A-111]",
    "class-label": "class 0"
  },
  {
    "compound": "O=C(/C=C/c1ccccc1)NCCCCCCO [H-425/21]",
    "class-label": "class 1"
  },
  {
    "compound": "Cc1ccc(/C=C/C(=O)NCCCCCO)cc1 [H-415/21]",
    "class-label": "class 1"
  },
  {
    "compound": "CCC(O)CNC(=O)/C=C/c1ccc(Cl)cc1 (stereo not drawn) [Compound A-67]",
    "class-label": "class 0"
  }
]

----------
Test system: S. typhimurium TA1535
method-summary: Ames microplate test, TA1535;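 note: bacteria exposed to compound 90 min at 37 °C, then kept 48 h at 37 °C with indicator medium in 384-well plates, scoring wells that turned yellow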
measurement-context: 1.0 mM, without S9
# binarize Increase in the number of yellow wells compared to the reference level: threshold 0.5 inclusive, high side Satisfied, low side Not satisfied

[
  {
    "molecule": "O=C(/C=C/c1ccc(Cl)cc1)NCCCCCO [Compound A-111]",
    "class-label": "Not satisfied"
  },
  {
    "molecule": "CCC(O)CNC(=O)/C=C/c1ccc(Cl)cc1 (stereo not drawn) [Compound A-67]",
    "class-label": "Not satisfied"
  },
  {
    "molecule": "O=C(/C=C/c1ccccc1)NCCCCCO [Compound A-133]",
    "class-label": "Satisfied"
  },
  {
    "molecule": "O=C(/C=C/c1ccccc1)NCCCCCCO [H-425/21]",
    "class-label": "Satisfied"
  },
  {
    "molecule": "CC(CO)NC(=O)/C=C/c1ccc(Cl)cc1 (stereo not drawn) [Compound A-102]",
    "class-label": "Not satisfied"
  },
  {
    "molecule": "Cc1ccc(/C=C/C(=O)NCCCCCO)cc1 [H-415/21]",
    "class-label": "Not satisfied"
  }
]

----------
Test system: Primary melanocytes
method-summary: Safety, MTT test in primary melanocytes
Type: cell-based
measurement-context: 200 µM; 48 hours
Catalogue of compounds with associated Primary melanocytes MTT

[
  {
    "molecule-smiles": "O=C(/C=C/c1ccc(Cl)cc1)NCCCCCO",
    "test-system": "Primary melanocytes",
    "Primary melanocytes MTT": "99.25±1.92 % of solvent control"
  },
  {
    "molecule-smiles": "O=C(/C=C/c1ccc(Cl)cc1)NCCO",
    "test-system": "Primary melanocytes",
    "Primary melanocytes MTT": "93.78±2.18 % of solvent control"
  },
  {
    "molecule-smiles": "O=C(/C=C/c1ccc(Cl)cc1)NCCCO",
    "test-system": "Primary melanocytes",
    "Primary melanocytes MTT": "93.78±2.29 % of solvent control"
  },
  {
    "molecule-smiles": "Cc1ccc(/C=C/C(=O)NCCCCCO)cc1",
    "test-system": "Primary melanocytes",
    "Primary melanocytes MTT": "94.81±2.92 % of solvent control"
  },
  {
    "molecule-smiles": "O=C(/C=C/c1ccccc1)NCCCCCO",
    "test-system": "Primary melanocytes",
    "Primary melanocytes MTT": "97.05±2.96 % of solvent control"
  }
]

----------
System: Chinese hamster ovary cell line (CHO-K1)
method-summary: Genotoxicity in the micronucleus test in CHO-K1 cells
Assay type: cell-based
measurement-context: 100 µM
assay-readout: MN (number of micronuclei in 1000 binucleate cells)

[
  {
    "compound": "O=C(/C=C/c1ccccc1)NCCCCCCO [H-425/21]",
    "value": 11.0
  },
  {
    "compound": "O=C(/C=C/c1ccc(Cl)cc1)NCCCCCO [Compound A-111]",
    "value": 4.5
  },
  {
    "compound": "Cc1ccc(/C=C/C(=O)NCCCCCO)cc1 [H-415/21]",
    "value": 12.5
  },
  {
    "compound": "CCC(O)CNC(=O)/C=C/c1ccc(Cl)cc1 (stereo not drawn) [Compound A-67]",
    "value": 12.0
  },
  {
    "compound": "O=C(/C=C/c1ccccc1)NCCCCCO [Compound A-133]",
    "value": 7.8
  },
  {
    "compound": "CC(CO)NC(=O)/C=C/c1ccc(Cl)cc1 (stereo not drawn) [Compound A-102]",
    "value": 10.5
  }
]

----------
Tested on: E. coli WP2
method-summary: Ames microplate test, E. coli WP2;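 note: bacteria treated 90 min at 37 °C in 24-well plates, then indicator medium dispensed to 384-well plates and incubated 48 h before yellow-well counting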
measurement-context: 2.0 mM, without S9
assay-readout: Increase in the number of yellow wells compared to the reference level

[
  {
    "compound": "Cc1ccc(/C=C/C(=O)NCCCCCO)cc1",
    "value": 0.95
  },
  {
    "compound": "O=C(/C=C/c1ccc(Cl)cc1)NCCCCCO",
    "value": 1.10
  },
  {
    "compound": "O=C(/C=C/c1ccccc1)NCCCCCO",
    "value": 1.10
  },
  {
    "compound": "CC(CO)NC(=O)/C=C/c1ccc(Cl)cc1 (stereo not drawn)",
    "value": 0.79
  },
  {
    "compound": "O=C(/C=C/c1ccccc1)NCCCCCCO",
    "value": 1.00
  },
  {
    "compound": "CCC(O)CNC(=O)/C=C/c1ccc(Cl)cc1 (stereo not drawn)",
    "value": 0.83
  }
]

----------
Catalogue of compounds with associated Increase in the number of yellow wells compared to the reference level
Tested on: S. typhimurium TA100
method-summary: Ames microplate test, TA100;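 note: reference level is the mean solvent-control yellow wells plus SD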
Assay type: cell-based, Salmonella typhimurium
measurement-context: 0.5 mM, without S9
assay-readout: Increase in the number of yellow wells compared to the reference level

[
  {
    "compound": "O=C(/C=C/c1ccccc1)NCCCCCO",
    "value": 0.60
  },
  {
    "compound": "CCC(O)CNC(=O)/C=C/c1ccc(Cl)cc1 (stereo not drawn)",
    "value": 1.53
  },
  {
    "compound": "Cc1ccc(/C=C/C(=O)NCCCCCO)cc1",
    "value": 0.92
  },
  {
    "compound": "O=C(/C=C/c1ccc(Cl)cc1)NCCCCCO",
    "value": 0.74
  },
  {
    "compound": "O=C(/C=C/c1ccccc1)NCCCCCCO",
    "value": 0.73
  },
  {
    "compound": "CC(CO)NC(=O)/C=C/c1ccc(Cl)cc1 (stereo not drawn)",
    "value": 1.08
  }
]

----------
System: Hepatocarcinoma HepG2
method-summary: Safety, MTT test in HepG2
Format: cell-based
measurement-context: 100 µM; 48 hours

[
  {
    "molecule-smiles": "O=C(/C=C/c1ccc(Cl)cc1)NCCCCCO",
    "test-system": "Hepatocarcinoma HepG2",
    "Hepatocarcinoma HepG2 MTT": "101.10±6.01 % of solvent control"
  },
  {
    "molecule-smiles": "Cc1ccc(/C=C/C(=O)NCCCCCO)cc1",
    "test-system": "Hepatocarcinoma HepG2",
    "Hepatocarcinoma HepG2 MTT": "100.32±1.75 % of solvent control"
  },
  {
    "molecule-smiles": "O=C(/C=C/c1ccc(Cl)cc1)NCCO",
    "test-system": "Hepatocarcinoma HepG2",
    "Hepatocarcinoma HepG2 MTT": "99.61±4.37 % of solvent control"
  },
  {
    "molecule-smiles": "O=C(/C=C/c1ccccc1)NCCCCCO",
    "test-system": "Hepatocarcinoma HepG2",
    "Hepatocarcinoma HepG2 MTT": "104.96±7.60 % of solvent control"
  },
  {
    "molecule-smiles": "O=C(/C=C/c1ccc(Cl)cc1)NCCCO",
    "test-system": "Hepatocarcinoma HepG2",
    "Hepatocarcinoma HepG2 MTT": "100.73±4.51 % of solvent control"
  }
]

Taken from patent EP4324461A1.
